List of 8OG:A repair function score values.
B1: library; numbered along this chain (parent)
chain: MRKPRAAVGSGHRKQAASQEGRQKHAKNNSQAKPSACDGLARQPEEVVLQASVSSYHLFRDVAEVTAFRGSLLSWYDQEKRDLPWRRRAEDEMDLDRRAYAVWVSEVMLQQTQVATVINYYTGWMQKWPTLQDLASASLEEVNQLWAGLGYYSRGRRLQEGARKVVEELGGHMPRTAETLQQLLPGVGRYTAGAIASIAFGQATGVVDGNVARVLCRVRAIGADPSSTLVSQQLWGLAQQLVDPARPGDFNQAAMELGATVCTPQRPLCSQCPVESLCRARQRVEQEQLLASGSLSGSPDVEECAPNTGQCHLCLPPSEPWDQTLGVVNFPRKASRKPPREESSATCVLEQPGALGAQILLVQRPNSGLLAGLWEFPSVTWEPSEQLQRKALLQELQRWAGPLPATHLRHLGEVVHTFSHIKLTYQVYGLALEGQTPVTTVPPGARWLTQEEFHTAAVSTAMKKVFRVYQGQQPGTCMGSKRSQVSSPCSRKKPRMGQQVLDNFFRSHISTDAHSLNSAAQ

Variants of: B1
RUN_DESCRIPTION: 8OG:A repair function score (normalized; synonymous = 0, nonsense = -1) (normalized log-likelihood score); higher = more repair activity (WT-like);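 also: cells sorted at 72 h after reporter transfection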
COND: with 8OG:A DNA repair reporter (GFP) in HEK-293 MUTYH KO cells
MEASURED_ENDPOINT: 8OG:A repair function score

>  <RESIDUE_CHANGE>
T263D

>  <RECORDED_MEASUREMENT>
-0.24

$$$$
>  <RESIDUE_CHANGE>
L403K

>  <RECORDED_MEASUREMENT>
-0.295

$$$$
>  <RESIDUE_CHANGE>
Q397W

>  <RECORDED_MEASUREMENT>
0.284

$$$$
